Value source: PubChem BioAssay (Tox21)

- Protocol Summary: qHTS assay to identify small molecule antagonists of the sonic hedgehog signaling (Shh) pathway (AID 1259369); further: nearly all actives have a fitted effect of over 45% in size
- Condition Details: NIH/3T3 Gli1-Luc reporter, Shh antagonist, luminescence 24 h; series mostly up to 92.4 µM
Records with an inconclusive call do not appear. Activity calls are given as the source filed them. The call rests on the fitted dose curve.
Possible outcomes: active, inactive

molecule=c1ccoc1 class_label=inactive
molecule=CCOC(=O)COc1cc(-c2nn(C)c(OC(F)F)c2Cl)c(F)cc1Cl class_label=inactive
molecule=c1ccc(C2CC2)c(OCC2=NCCN2)c1 class_label=inactive
molecule="Cn1cc[n+](C)c1 (tested in a mixture with another compound)" class_label=inactive
molecule="CCOC(=O)C(Cl)C(C)=O (configuration not stated)" class_label=inactive
molecule=CCCCc1c(C)nc(NCC)nc1OS(=O)(=O)N(C)C class_label=active
molecule=O=[N+]([O-])C(Br)(CO)CO class_label=active
molecule=C[C@H]1CNCCc2ccc(Cl)cc21 class_label=inactive
molecule="CC1(C)CCC(Cc2ccc(Cl)cc2)C1(O)Cn1cncn1 (configuration not stated)" class_label=active
molecule=O=C(O)c1ccccc1C(=O)Nc1cccc2ccccc12 class_label=inactive
molecule=Nc1nc(=S)[nH][nH]1 class_label=inactive
molecule=COC(C)(C)CCC[C@H](C)C/C=C/C(C)=C/C(=O)OC(C)C class_label=inactive
molecule=CN(C)c1ccc(N(C)C)cc1 class_label=inactive
molecule=CCCCCCCCCC(=O)O[C@H]1CC[C@H]2[C@@H]3CCC4=CC(=O)CC[C@@H]4[C@H]3CC[C@]12C class_label=inactive
molecule=CCN(C)N=O class_label=inactive
molecule=NC(=O)CI class_label=inactive
molecule="CNC(C)Cc1ccccc1OC (configuration not stated)" class_label=inactive
molecule=O=[N+]([O-])c1ccccc1CCl class_label=inactive
molecule=O=Cc1ccc(Cl)cc1Cl class_label=inactive
molecule=Cc1cc(=O)[nH]o1 class_label=inactive
molecule="CCC(Cl)CCl (configuration not stated)" class_label=inactive
molecule=COCCOCCO class_label=active
molecule=COP(=S)(OC)Oc1cc(Cl)c(I)cc1Cl class_label=active
molecule="CC(=O)c1cc2c(cc1C)C(C)(C)C(C)CC2(C)C (configuration not stated)" class_label=inactive
molecule=Cl/C=C\C[N+]12CN3CN(CN(C3)C1)C2 class_label=inactive
molecule="CC(=O)NC1CCSC1=O (configuration not stated)" class_label=inactive
molecule="COC(=O)c1cncn1C(C)c1ccccc1 (configuration not stated)" class_label=inactive
molecule=BrCCCCBr class_label=inactive
molecule=O=C(OC1CCCCC1)c1ccccc1C(=O)OC1CCCCC1 class_label=active
molecule="CCCCC(O)(Cn1cncn1)c1ccc(Cl)cc1Cl (configuration not stated)" class_label=active
molecule=CCOP(=S)(OCC)SCSCC class_label=inactive
molecule=COP(=S)(OC)Oc1ccc([N+](=O)[O-])cc1Cl class_label=inactive

###

- Protocol Summary: qHTS RealTime-Glo MT Cell Viability Assay in HEK293 cells - 8 hour (AID 1224887); further: nearly all actives have a fitted effect of over 50% in size
- Condition Details: RealTime-Glo luminescence; series mostly up to 76.8 µM
Results filed as inconclusive are left out. Activity calls are given as the source filed them. Calls come from the whole dose curve; as a rule, active = well fitted cell-killing curve with a large enough effect in the repeat runs; inconclusive = weak or mixed curves, or effect the other way; inactive = flat fitted curve, though single readings scatter.
Possible outcomes: true = active, false = inactive

compound=NC(=O)CI class_label=false
compound=O=[N+]([O-])c1ccccc1CCl class_label=false
compound=ClP(Cl)(Cl)(Cl)Cl class_label=false
compound=O=NN1CCCCCC1 class_label=false
compound="COC(=O)C(Br)CBr (stereo not given)" class_label=false
compound=C=COC(C)=O class_label=false
compound=O=C(OC1CCCCC1)c1ccccc1C(=O)OC1CCCCC1 class_label=false
compound=CCOC(=O)[C@]1(c2ccccc2)Oc2ccccc2[C@@H]1N class_label=false
compound=CC(C)N(C(=O)COc1nnc(C(F)(F)F)s1)c1ccc(F)cc1 class_label=true
compound=c1cc2ccc3cccc4ccc(c1)c2c34 class_label=false
compound=CS/C(C)=N/OC(=O)N(C)SN(C)C(=O)O/N=C(\C)SC class_label=true
compound=CCCCNP(N)(N)=S class_label=false
compound=N#C/C(N)=C(/N)C#N class_label=false
compound=[CH3][Sn]([CH3])([Cl])[Cl] class_label=false
compound=C#CCOC(C(=O)OCCN(C)C)(c1ccccc1)c1ccccc1 class_label=false
compound=O=C1NCN(c2ccccc2)C12CCN(CCCOc1ccc(F)cc1)CC2 class_label=false
compound=C=CC(=O)NCNC(=O)C=C class_label=false
compound="CCC(COC(=O)c1cc(OC)c(OC)c(OC)c1)(c1ccccc1)N(C)C (stereo not given)" class_label=true
compound="CN1C(=O)C(O)N=C(c2ccccc2)c2cc(Cl)ccc21 (stereo not given)" class_label=false
compound=CC(Cl)Cl class_label=false
compound=C=CC(=O)OC(C)(C)C class_label=false
compound=ClC=C(Cl)Cl class_label=false
compound=CCOS(C)(=O)=O class_label=false
compound=N#CCC#N class_label=false
compound=CCC(Br)(CC)C(=O)NC(N)=O class_label=false
compound=Cn1sc(Cl)cc1=O class_label=false
compound=Nc1nc(N)nc(N)n1 class_label=false
compound="O=C(O)CC(Cl)C(=O)O (stereo not given)" class_label=false
compound=CCOP(=S)(OCC)SCSCC class_label=false
compound=O=C(O)COc1ccc(Cl)cc1 class_label=false
compound="CC(=O)NC1CCSC1=O (stereo not given)" class_label=false
compound=CCN(C)N=O class_label=false
compound=CCOP(=S)(OCC)SCn1nnc2ccccc2c1=O class_label=true
compound=CC(C)O.CC(C)O.OCCN(CCO)CCO.OCCN(CCO)CCO.[Ti] class_label=false
compound=CCO[C@H]1O[C@@H]2OC3(C)CC[C@H]4[C@H](C)CC[C@@H]([C@H]1C)[C@@]24OO3 class_label=false
compound=C=CC(=O)OCCCCO class_label=false
compound=CCCCN=C=O class_label=false
compound=C=CCOC(C)=O class_label=false
compound=O=C(NCc1cccnc1)Nc1ccc([N+](=O)[O-])cc1 class_label=false
compound=CC(C)(C)c1cc([N+](=O)[O-])cc([N+](=O)[O-])c1O class_label=false
compound=Nc1ccc(N=Nc2ccc(-c3ccc(N=Nc4c(S(=O)(=O)O)cc5cc(S(=O)(=O)O)c(N=Nc6ccccc6)c(O)c5c4N)cc3)cc2)c(N)c1 class_label=false
compound=COc1c(C(C)(C)C)cc([N+](=O)[O-])c(C)c1[N+](=O)[O-] class_label=false
compound=O=C=Nc1ccc(Cl)cc1 class_label=false
compound=CN(C)c1ccc(N(C)C)cc1 class_label=true
compound=NC(=O)C(Cl)(Cl)Cl class_label=false
compound=O=C1c2ccccc2C(=O)C1C(=O)C(c1ccccc1)c1ccccc1 class_label=false
compound=CCCCN(N=O)C(=N)N[N+](=O)[O-] class_label=false
compound=C[C@@H]1CC[C@H]2[C@@H](C)C(=O)O[C@@H]3O[C@@]4(C)CC[C@@H]1[C@]32OO4 class_label=false
compound=Cl/C=C\C[N+]12CN3CN(CN(C3)C1)C2 class_label=false
compound=Cc1ccccc1CCl class_label=false

###

- Target Under Test: Cytochrome P450 1A2 (Homo sapiens)
- Protocol Summary: Cytochrome P450 Family 1 Subfamily A Member 2 (CYP1A2) small molecule antagonists: luciferase reporter qHTS assay (AID 1671199); further: nearly all actives have a fitted effect of over 50% in size; further: potency means the concentration at half of the fitted maximal effect
- Condition Details: P450-Glo CYP1A2 enzyme, luciferin luminescence, 1 h; series mostly up to 115 µM
Results filed as inconclusive are left out. Active and inactive are the calls of the source. Calls follow the shape of the dose curve; as a rule, active = well fitted inhibition curve with a large enough effect in the repeat runs; inconclusive = weak or mixed curves; inactive = no such curve, though single readings can be large or run the other way.
Parameter: Potency

chem_smiles=C[N+](C)(C)CCCl parameter=Potency test_value=inactive
chem_smiles=O=C(O)C1(c2ccc3c(c2)OC[C@H](Cc2ccc(-c4ccccc4)cc2)[C@H]3O)CCCC1 parameter=Potency test_value=inactive
chem_smiles=CN(N=O)c1ccc([N+](=O)[O-])cc1 parameter=Potency test_value="6.33 µM (active)"

###

- Protocol Summary: A CellTox Green Cytotoxicity Assay to monitor cytotoxicity in HepG2 cells - 16 hour (AID 1224876); further: nearly all actives have a fitted effect of over 45% in size
- Condition Details: CellTox Green fluorescence; series mostly up to 76.8 µM
Inconclusive results are not listed. Activity calls are given as the source filed them. Calls follow the shape of the dose curve; as a rule, active = well fitted activation curve with a large enough effect in the repeat runs; inconclusive = weak or mixed curves; inactive = flat fitted curve, though single readings scatter.
Parameter: outcome

chem_smiles=Cc1ccccc1CCl parameter=outcome test_value=inactive
chem_smiles=C=CC(=O)NCNC(=O)C=C parameter=outcome test_value=inactive
chem_smiles=CCc1ccc(C(=O)NN(C(=O)c2cc(C)cc(C)c2)C(C)(C)C)cc1 parameter=outcome test_value=inactive

###

- Target Under Test: Cytochrome P450 2C19 (Homo sapiens) (UniProt P33261)
- Sequence (P33261 whole entry, looked up): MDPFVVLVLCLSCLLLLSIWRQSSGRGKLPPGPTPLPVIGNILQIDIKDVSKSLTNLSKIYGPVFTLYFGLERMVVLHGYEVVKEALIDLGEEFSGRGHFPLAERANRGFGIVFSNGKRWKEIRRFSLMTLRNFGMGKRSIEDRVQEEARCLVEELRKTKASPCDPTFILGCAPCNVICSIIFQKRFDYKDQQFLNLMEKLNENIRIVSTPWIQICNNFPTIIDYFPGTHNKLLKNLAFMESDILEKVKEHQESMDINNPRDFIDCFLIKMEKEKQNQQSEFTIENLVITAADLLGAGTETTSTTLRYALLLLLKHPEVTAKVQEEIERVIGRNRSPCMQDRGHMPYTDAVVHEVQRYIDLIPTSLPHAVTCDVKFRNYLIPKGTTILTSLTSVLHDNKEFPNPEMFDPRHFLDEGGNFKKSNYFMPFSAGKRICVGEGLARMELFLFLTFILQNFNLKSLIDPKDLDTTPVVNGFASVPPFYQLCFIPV
- Protocol Summary: Cytochrome P450 Family 2 Subfamily C Member 19 (CYP2C19) small molecule antagonists: luciferase reporter qHTS assay (AID 1671197); further: nearly all actives have a fitted effect of over 65% in size
- Condition Details: P450-Glo CYP2C19 enzyme, luciferin luminescence, 1 h; series mostly up to 115 µM
Inconclusive results are not listed. Calls of active or inactive are those of the source. Calls follow the shape of the dose curve; as a rule, active = well fitted inhibition curve with a large enough effect in the repeat runs; inconclusive = weak or mixed curves; inactive = no such curve, though single readings can be large or run the other way.
Possible outcomes: active, inactive

compound=COC(N)=O class_label=inactive
compound=O=S(=O)(O)C(F)(F)C(F)(F)C(F)(F)C(F)(F)F class_label=active
compound=CCc1ccc(C(=O)NN(C(=O)c2cc(C)cc(C)c2)C(C)(C)C)cc1 class_label=active
compound=[CH3][Sn]([CH3])([Cl])[Cl] class_label=inactive
compound=ClCCCCBr class_label=inactive
compound="CC(C)(C)C(O)C(Oc1ccc(Cl)cc1)n1cncn1 (configuration not stated)" class_label=active
compound=COc1nn(C(=O)NS(=O)(=O)c2ccccc2OC(F)(F)F)c(=O)n1C class_label=inactive
compound=Nc1nc(=S)[nH][nH]1 class_label=active
compound=c1ccc(C2CC2)c(OCC2=NCCN2)c1 class_label=inactive
compound=O=C(Nc1ccccc1)Nc1ccnc(Cl)c1 class_label=active
compound=COc1c(C(C)(C)C)cc([N+](=O)[O-])c(C)c1[N+](=O)[O-] class_label=active
compound=CCOc1ccc(C(C)(C)COCc2cccc(Oc3ccccc3)c2)cc1 class_label=active
compound=CCOP(=O)(OCC)O/C(=C/Cl)c1ccc(Cl)cc1Cl class_label=active
compound=NNC(=O)c1cccnc1 class_label=active
compound=CCCN(CC1CC1)c1c([N+](=O)[O-])cc(C(F)(F)F)cc1[N+](=O)[O-] class_label=active
compound=O=C1NCN(c2ccccc2)C12CCN(CCCOc1ccc(F)cc1)CC2 class_label=inactive
compound=CCOc1nc(F)cc2nc(S(=O)(=O)Nc3c(Cl)cccc3Cl)nn12 class_label=inactive
compound="CCC(COC(=O)c1cc(OC)c(OC)c(OC)c1)(c1ccccc1)N(C)C (configuration not stated)" class_label=active
compound=C#CCOC(C(=O)OCCN(C)C)(c1ccccc1)c1ccccc1 class_label=active
compound=O=C(O)c1ccccc1C(=O)Nc1cccc2ccccc12 class_label=active
compound=COP(=O)(OC)O/C(=C/Cl)c1cc(Cl)c(Cl)cc1Cl class_label=active
compound=Cc1ccc(N)cc1C class_label=active
compound=Nc1ccc(N=Nc2ccc(-c3ccc(N=Nc4c(S(=O)(=O)O)cc5cc(S(=O)(=O)O)c(N=Nc6ccccc6)c(O)c5c4N)cc3)cc2)c(N)c1 class_label=inactive
compound=CCOS(C)(=O)=O class_label=inactive
compound=CCCCN=C=O class_label=active
compound=O=NN1CCCCCC1 class_label=inactive
compound=Clc1cc(Cl)c(Cl)c(Cl)c1 class_label=inactive
compound="O=C1C(Cl)C(CCl)CN1c1cccc(C(F)(F)F)c1 (configuration not stated)" class_label=active
compound=CC1(C)[C@H](C=C(Cl)Cl)[C@@H]1C(=O)O[C@@H](C#N)c1cccc(Oc2ccccc2)c1 class_label=active
compound=c1ccoc1 class_label=inactive
compound=N#C/C(N)=C(/N)C#N class_label=active
compound=Cc1ccc(-c2c(Cl)nc(C#N)n2S(=O)(=O)N(C)C)cc1 class_label=active
compound=CCCCN(N=O)C(=N)N[N+](=O)[O-] class_label=inactive
compound=C=CC(=O)OCC(C)C class_label=inactive
compound=Clc1cccc2ccccc12 class_label=inactive
compound=O=C1c2ccccc2C(=O)C1C(=O)C(c1ccccc1)c1ccccc1 class_label=active
compound="CC(=O)NC1CCSC1=O (configuration not stated)" class_label=inactive
compound="C=CC(=O)OCC(C)O (configuration not stated)" class_label=inactive
compound="CNC(C)Cc1ccccc1OC (configuration not stated)" class_label=inactive
compound=CCN(C)N=O class_label=inactive
compound=Cc1ccc2ccccc2c1 class_label=inactive
compound=CC(C)N(C(=O)COc1nnc(C(F)(F)F)s1)c1ccc(F)cc1 class_label=active
